Data provenance is patent US20200308270A1.

- TEST_SYSTEM: T1, recombinant human HER3 (human, UniProt P21860 20-643)
- T1 construct: Bought reagent
- ASSAY_PROCEDURE: SPR (Biacore T200), HER3 captured via anti-His, Fab analyte;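 note: single cycle kinetics with five Fab concentrations, referenced against a blank flow cell and mock-buffer injections, sensorgrams fit to a 1:1 binding model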
Below is a list of entries, each paired with its recorded pKd value.
Notebook: values listed as pKd are -log10 of the concentration (mol/L).

Given the binder H3 designed Vlambda-Ckappa chimeric Fab, design 30 (E83I) (Fab, name in Kabat numbering, V domains shown) VH: QVQLQESGGGLVKPGGSLRLSCAASGFTFSSYWMSWVRQAPGKGLEWVANINRDGSASYYVDSVKGRFTISRDDAKNSLYLQMNSLRAEDTAVYYCARDRGVGYFDLWGRGTLVTVSS VL: QSALTQPASVSGSPGQSITISCTGTSSDVGGYNFVSWYQQHPGKAPKLMIYDVSDRPSGVSDRFSGSKSGNTASLIISGLQADDIADYYCSSYGSSSTHVIFGGGTKVTVLR , write its reported pKd.
7.02

Retrieve pKd measured for H3 designed Vlambda-Ckappa chimeric Fab, design 37 (E83A_D85T) (Fab, name in Kabat numbering, V domains shown) VH: QVQLQESGGGLVKPGGSLRLSCAASGFTFSSYWMSWVRQAPGKGLEWVANINRDGSASYYVDSVKGRFTISRDDAKNSLYLQMNSLRAEDTAVYYCARDRGVGYFDLWGRGTLVTVSS VL: QSALTQPASVSGSPGQSITISCTGTSSDVGGYNFVSWYQQHPGKAPKLMIYDVSDRPSGVSDRFSGSKSGNTASLIISGLQADDAATYYCSSYGSSSTHVIFGGGTKVTVLR and print it.
7.08

Fill in pKd for record H3 designed Vlambda-Ckappa chimeric Fab, design 23 (E83V) (Fab, name in Kabat numbering, V domains shown) VH: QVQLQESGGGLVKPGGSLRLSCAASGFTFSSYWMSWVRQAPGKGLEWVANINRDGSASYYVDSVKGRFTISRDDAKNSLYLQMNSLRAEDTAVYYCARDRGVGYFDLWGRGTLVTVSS VL: QSALTQPASVSGSPGQSITISCTGTSSDVGGYNFVSWYQQHPGKAPKLMIYDVSDRPSGVSDRFSGSKSGNTASLIISGLQADDVADYYCSSYGSSSTHVIFGGGTKVTVLR
7.02

Supply measured pKd of H3 designed Vlambda-Ckappa chimeric Fab, design 21 (E83F_D85V_T105E_V106I) (Fab, name in Kabat numbering, V domains shown) VH: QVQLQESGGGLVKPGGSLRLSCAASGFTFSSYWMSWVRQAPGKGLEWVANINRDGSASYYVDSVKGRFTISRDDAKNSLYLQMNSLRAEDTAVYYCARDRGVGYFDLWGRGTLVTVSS VL: QSALTQPASVSGSPGQSITISCTGTSSDVGGYNFVSWYQQHPGKAPKLMIYDVSDRPSGVSDRFSGSKSGNTASLIISGLQADDFAVYYCSSYGSSSTHVIFGGGTKVEILR in your reply.
7.08
